Data provenance is patent US10500209B2.

Measured quantity: melting point

Give the measured melting point of COc1cc(OC)c2c(=O)[nH]c(-c3ncc(OCCNC(C)C)cc3NC3CCN(C(C)C)CC3)nc2c1 [Example 67] .
178 to 181 °C

Entry to check: COc1ccc(-c2nc3cc(OC)cc(OC)c3c(=O)[nH]2)c(NCCCNC(C)C)c1 [Example 20]
208 to 210 °C

Could you do the same for COc1cc(OC)c2c(=O)[nH]c(-c3ncccc3NC3CCN(C(N)=O)CC3)nc2c1 [Example 54] , please?
265 to 266 °C

Cool, now COc1cnc(-c2nc3cc(OC)cc(OC)c3c(=O)[nH]2)c(N[C@H]2CC[C@@H](NC(=O)C(C)C)CC2)c1 [Example 38]
285 °C (dec.)

###

Test system: c-myc in MV4-11 cells
Assay: Inhibition of c-myc expression in cancer cell lines (mRNA, real-time PCR)
Type: cell-based, Human
Parameters: key: Active: Compounds with an IC50 value less than 30 μM were deemed to be active.; Not Active: Compounds with an IC50 value less than 30 μM were deemed to be active
Conditions: 3 h
Protocol: MV4-11 cells (2.5×10^4 cells) were plated in 96 well U-bottom plates with test compound or DMSO (0.1%), and incubated for 3 h at 37° C. Cells were then harvested by centrifugation, lysed, and mRNA was isolated using the mRNA catcher plus kit (Invitrogen). […] IC50 values were determined from a dose response curve.

{"Compound": "COc1ccc(-c2nc3cc(OC)cc(OC)c3c(=O)[nH]2)c(NCC2CCN(C(C)C)C2)c1 (stereo not drawn)", "c-myc activity (IC50 < 30 μM)": "Active"}
{"Compound": "COc1cc(OC)c2c(=O)[nH]c(-c3ncccc3NC3CCN(C(=O)C(F)(F)F)CC3)nc2c1", "c-myc activity (IC50 < 30 μM)": "Active"}
{"Compound": "COc1ccc(-c2nc3cc(OC)cc(OC)c3c(=O)[nH]2)c(NCCN2CCN(C(C)C)CC2)c1", "c-myc activity (IC50 < 30 μM)": "Active"}

###

Listed below: melting point values for each entry.

{"Compound": "COc1cncc2nc(-c3ncccc3NC3CCN(C(C)C)CC3)[nH]c(=O)c12", "melting point": "237 to 238 °C"}
{"Compound": "COc1ccc(-c2nc3cc(OC)cc(OC)c3c(=O)[nH]2)c(NC2CCN(C)C2)c1 (centres unmarked)", "melting point": "214 to 215 °C"}
{"Compound": "CCNC(=O)N1CCC(Nc2cccnc2-c2nc3cc(OC)cc(OC)c3c(=O)[nH]2)CC1", "melting point": "151 to 152 °C"}
{"Compound": "COc1cc(OC)c2c(=O)[nH]c(-c3ncccc3N[C@H]3CC[C@@H](C(=O)NC(C)C)CC3)nc2c1", "melting point": "256 to 257 °C"}
{"Compound": "COc1cc(OC)c2c(=O)[nH]c(-c3ccc(Cl)cc3NC3CCN(C(=O)C(C)C)CC3)nc2c1", "melting point": "281 to 283 °C"}

Can you look up the measured melting point of COc1ccc(-c2nc3cc(OC)cc(OC)c3c(=O)[nH]2)c(NCC2CCCN2C(C)C)c1 (centres unmarked) for me?
207 to 209 °C

Further, for COc1ccc(CNc2cc(OC)c3c(=O)[nH]c(-c4ncccc4NC4CCN(C(C)C)CC4)nc3c2)cc1 ?
220 to 222 °C
